# testName: 28-day once weekly oral repeated-dose DRF study in cynomolgus monkeys (mesylate salt)
# Assay type: in vivo
# conditionSet: female, cynomolgus monkey, blood, po, 45 mg/kg, F, Day 22
metric: Tmax (h)
Numbers only, in h.

Task: Record request: Tmax value, item CC(C)C[C@@H]1NCCN([C@@H](CC(C)C)C(=O)N2CCC3(C[C@@H]2C)OCC(CN2CCCC2)CO3)C1=O (stereo partly shown)
Result: 1.5

* * *

# testName: Single dose oral gavage or intravenous PK in female cynomolgus monkeys, plasma
# Assay type: in vivo
# conditionSet: female, cynomolgus monkey, plasma; po 12 mg/kg
metric: half-life (h)
One number for each entry, in h.

Task: Record request: half-life value, item CC(C)C[C@@H]1NCCN([C@@H](CC(C)C)C(=O)N2CCC3(C[C@@H]2C)OCC(CN2CCCC2)CO3)C1=O (stereo partly shown)
Result: 5.46
